ASSAY INFO: parental HEK293 cell activity, no Kir2.1 – FluxOR thallium flux, duplicate, single concentration, counter-screen for Kir2.1 inhibitor project, confirmation (AID 2105)
SETUP CONDITIONS: parental HEK293 cells, FluxOR thallium flux fluorescence, at 10 µM; 0% = unstimulated blank wells
This is one part of the list. Active and inactive are the calls of the source.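 The calls were made as follows: active = dye signal at least 3 control SD above or below untreated wells in both duplicates, raw fluorescence within 3, either direction; inactive = the rest.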
Result category, one only: 1 = active, 0 = inactive

Before answering, review these 3 worked examples.
NC(N)=Nc1nc(-c2ccccc2)c2cc(Cl)ccc2n1 : 0
COc1cccc(NC(=O)C2C(c3ccccc3)C2(Cl)Cl)c1 (stereo unspecified) : 0
COc1ccc(NC(=O)/C(Cl)=C(/Cl)S(=O)Cc2ccc(C)cc2)cn1 (stereo unspecified) : 0

What did this assay record as the result for CCCOc1ccc(C(=O)C(CCC(CNCC)C(=O)c2ccc(OCCC)cc2)CNCC)cc1 (stereo unspecified) ? 0

Give the logged outcome of this assay for the following compound: O=C(Nc1ccc(Oc2ccccc2)cc1)c1ccco1 0

// return assay outcome for O=C(NCCc1c[nH]c2ccccc12)C1CCN(Cc2ccc(Br)cc2)CC1 0

Please state the recorded outcome for this compound: CC1=NN(C(=O)c2ccc(Br)cc2)C(O)(c2ccccc2)C1 (stereo unspecified) 1

// return assay outcome for CC1(C)NC(=O)N(CCCCSc2ccc(Cl)cc2)C1=O 0

// return assay outcome for CCOC(=O)c1sc(=S)n2c1[nH]c(=O)c1ccc(C(=O)OC)cc12 1

###

SYSTEM NAME: Potassium voltage-gated channel subfamily KQT member 2 (Rattus norvegicus)
ASSAY INFO: W236L mutant KCNQ2 current enhancers – cell-based, rat KCNQ2 W236L, CHO, automated patch clamp, mechanism study for KCNQ2 potentiator project (AID 2558)
SETUP CONDITIONS: at 25 µM
This is one part of the list. Calls of active or inactive are those of the source.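 The calls were made as follows: active = current increase at least 3 SD of the untreated controls above them in both duplicate recordings; inactive = the rest.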
Assign a class; possible classes are T (active), F (inactive)

CC(C)(C)C1CCC(C(=O)NCC(c2cccs2)N2CCOCC2)CC1 (stereo unspecified) : F

What outcome does the record of this test show for CCn1c(=S)[nH]c2sc3c(c2c1=O)CCCCC3 ? F

Hi team, can someone confirm the assay call for Cc1ccc(-n2nc3c(c2NC(=O)CCC2CCCCC2)CS(=O)C3)cc1 (stereo unspecified) ? F

Could you please tell me the result logged for CSc1nnc(NC(=O)c2nc(S(=O)(=O)Cc3ccc(C)cc3)ncc2Cl)s1 in this assay? T

What did this assay record as the result for CCCCNC(=O)Nc1c(C)cc(SC#N)cc1C ? F

What call does the record list for CCOC(=O)c1sc(=S)n2c1[nH]c(=O)c1ccc(C(=O)OC)cc12 ? F

Given O=C(NCc1ccc2c(c1)OCO2)c1ccc(Cl)s1 , state the outcome it received in this test. F

How was Cc1cccc(NC(=S)NC(=O)c2ccc(Br)o2)c1 classified in this test? F

GET /call?item= CCOC(=O)c1c(NC(=S)NC)sc2c1CCCC2 returns the recorded outcome of this test. F

Recorded call for COc1cccc(NC(=O)C2C(c3ccccc3)C2(Cl)Cl)c1 (stereo unspecified) ? F

Could you please tell me the result logged for Cc1[nH]n(-c2cccc(Cl)c2)c(=O)c1/C=N/n1c(C)nc2ccccc2c1=O in this assay? F

###

ASSAY INFO: serotonin-gated TRPC4 signal block – cell-based, second counter screen, HEK293 TRPC4/5HT1a, Fluo-4, counter-screen for TRPC4 inhibitor project, confirmation (AID 434978)
SETUP CONDITIONS: Fluo-4 calcium flux, at 10 µM, serotonin added to trigger calcium flux
Calls of active or inactive are those of the source.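 How the source made its calls: active means primary screen active whose calcium signal fell more than 3 SD beyond the full-serotonin control mean in both duplicate plates; inactive means the rest.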
// classify into active, inactive

Use these answered entries as a reference point.
COc1ccc(C)cc1N(C(=O)c1snc(C(N)=O)c1N)C(C(=O)NC1CCCCC1)c1ccc(C)o1 (stereo not given) : active
O=C(CC1CCCCC1)c1c(O)c2ccccc2oc1=O : inactive
O=c1oc2ccccc2c(O)c1/C=C1\C=Nc2ccccc21 : inactive

Per the assay record, what outcome was assigned to CC12CC3(C)CC(C)(C1)CC(NC(=O)N1CCCC1)(C2)C3 ? inactive

In this assay, the call recorded for NC(=O)c1nsc(C(=O)N(Cc2ccc(F)cc2)C(C(=O)NCC2CCCO2)c2ccc(O)cc2)c1N (stereo not given) was what? active

Look up the recorded call for CCOc1ccc2[nH]c3c(N4CCN(c5ccccn5)CC4)ncnc3c2c1 in this test. inactive

Hi, sorry to bother you, what did the test record for Cc1ccc(OCCn2c(C)nc3ccccc32)cc1 ? active

Recorded test call requested for Cc1cccc(NC(=O)c2cc([N+](=O)[O-])ccc2N2CCN(C)CC2)c1 inactive

I'd appreciate the recorded outcome for Cc1ccc2c(c1)N(C(=O)CCC(=O)Nc1ccccc1Br)CC(C)O2 (stereo not given) from this test. active

In this assay, the call recorded for CC(=O)Oc1ccc(NC(=O)CCC2CCCCC2)c(C(=O)O)c1 was what? inactive
